Test system: PAD
procedureDetails: qHTS profiling for inhibitors of Plasmodium falciparum proliferation (AID 504749); also: nearly all actives have a fitted effect of over 60% in size
conditionParameters: P. falciparum in erythrocytes, SYBR Green DNA, 72 h; series mostly up to 12.8 µM
Results filed as inconclusive are left out. Active and inactive are the calls of the source. Calls follow the shape of the dose curve; as a rule, active = well fitted inhibition curve with a large enough effect; inconclusive = small, poorly fitted or top-dose-only effect; inactive = flat fitted curve, though single readings scatter.
One label from this list, please: Y (active), N (inactive)

Worked examples, 5 compounds total:
1) NC[C@@H]1O[C@H](O[C@@H]2[C@H](O[C@@H]3O[C@H](CO)[C@@H](O)[C@@H]3O)[C@@H](O)[C@@H](N)C[C@H]2N)[C@@H](N)[C@H](O)[C@@H]1O; N
2) CNC[C@H](O)c1ccc(OC(=O)C(C)(C)C)c(OC(=O)C(C)(C)C)c1; N
3) NC[C@@H]1O[C@H](O[C@H]2[C@H](O)[C@H](O[C@@H]3O[C@H](CO)[C@@H](O)[C@H](N)[C@@H]3O)[C@@H](N)C[C@H]2N)[C@@H](O)[C@H](O)[C@@H]1O; N
4) CN(C)CCOC(=O)[C@@H](c1ccccc1)C1(O)CCCC1; N
5) CO[C@]12C(COC(N)=O)C3=C(C(=O)C(C)=C(N)C3=O)N1CC1NC12 (stereo partly drawn); Y

// query How did this test come out for `O=C(NC[C@@H](O)CO)c1c(I)c(C(=O)NC[C@@H](O)CO)c(I)c(N(CCO)C(=O)CO)c1I` ?
// result N

// query What do we get for `CC[C@H]1NC(=O)c2cc(S(N)(=O)=O)c(Cl)cc2N1` ?
// result N

// query What do we get for `C[C@H](Oc1ccccc1)C(=O)N[C@@H]1C(=O)N2[C@@H]1SC(C)(C)[C@@H]2C(=O)O` ?
// result N
